Assayed System: Fyn (UniProt P06241)
Sequence (P06241 whole entry, looked up): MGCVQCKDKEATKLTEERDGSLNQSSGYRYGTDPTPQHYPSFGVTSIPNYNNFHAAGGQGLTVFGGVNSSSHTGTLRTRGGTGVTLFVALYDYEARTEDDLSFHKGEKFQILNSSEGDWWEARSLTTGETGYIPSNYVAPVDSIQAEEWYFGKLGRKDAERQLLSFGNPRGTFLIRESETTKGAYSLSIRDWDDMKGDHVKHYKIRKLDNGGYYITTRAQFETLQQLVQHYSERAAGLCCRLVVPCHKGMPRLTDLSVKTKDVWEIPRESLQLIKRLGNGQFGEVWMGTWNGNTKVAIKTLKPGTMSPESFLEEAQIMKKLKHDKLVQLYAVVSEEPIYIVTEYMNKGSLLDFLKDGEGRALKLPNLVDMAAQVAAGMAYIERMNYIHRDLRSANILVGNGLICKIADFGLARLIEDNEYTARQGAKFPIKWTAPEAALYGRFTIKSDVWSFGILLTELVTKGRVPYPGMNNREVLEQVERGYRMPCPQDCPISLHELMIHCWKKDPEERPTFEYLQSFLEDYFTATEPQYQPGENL
Measurement Description: phosphorylation enrichment, bacterial display (enrichment ratio); higher = better substrate or ligand; peptides without Tyr show the background;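 note: 11-residue human phosphosite peptides and single-mutation variants displayed on the E. coli surface, counted by deep sequencing, each peptide's frequency after selection divided by its frequency in the unselected input library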;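 note: frequency after pTyr selection over input frequency; kinase dosed for 20-30% of maximal phosphorylation in three min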
// thresholds for phosphorylation enrichment classes: low: < 0.5; medium: ≥ 0.5 and < 0.6; high: ≥ 0.6

SGPRRYTIATL [TTR_Y125_A129T]; low
PGVDIYISPNM [PADI3_Y51]; high
RIFDFYSARKA [STOX1_Y858_YF]; high
RGRSTYYWPSP [GAGE12J_Y9_R13S]; high
CTNPQYLAAGS [RABL3_Y185_R184Q]; medium

Categorize the following entry: TESNNYIYTTL [FAM83B_Y637_K640T]
high

Categorize the following entry: DKATEYIQFMR [MAX_Y70_YF]
high

Categorize the following entry: LIHTKYPQLLP [AHCY_Y143]
low

Categorize the following entry: AHAGEYGVEAL [HBA1_Y25_A27V]
medium

Categorize the following entry: CTTIYYNYMCN [TP53_Y234_H233Y]
high

Categorize the following entry: MGRVNYGAYIN [GLB1_Y485]
low

Measured values drawn from the supplement of paper PMC10065799 for this set.
